# EXPERIMENTAL SYSTEM: UniProtKB P51639
# Sequence (P51639 whole entry): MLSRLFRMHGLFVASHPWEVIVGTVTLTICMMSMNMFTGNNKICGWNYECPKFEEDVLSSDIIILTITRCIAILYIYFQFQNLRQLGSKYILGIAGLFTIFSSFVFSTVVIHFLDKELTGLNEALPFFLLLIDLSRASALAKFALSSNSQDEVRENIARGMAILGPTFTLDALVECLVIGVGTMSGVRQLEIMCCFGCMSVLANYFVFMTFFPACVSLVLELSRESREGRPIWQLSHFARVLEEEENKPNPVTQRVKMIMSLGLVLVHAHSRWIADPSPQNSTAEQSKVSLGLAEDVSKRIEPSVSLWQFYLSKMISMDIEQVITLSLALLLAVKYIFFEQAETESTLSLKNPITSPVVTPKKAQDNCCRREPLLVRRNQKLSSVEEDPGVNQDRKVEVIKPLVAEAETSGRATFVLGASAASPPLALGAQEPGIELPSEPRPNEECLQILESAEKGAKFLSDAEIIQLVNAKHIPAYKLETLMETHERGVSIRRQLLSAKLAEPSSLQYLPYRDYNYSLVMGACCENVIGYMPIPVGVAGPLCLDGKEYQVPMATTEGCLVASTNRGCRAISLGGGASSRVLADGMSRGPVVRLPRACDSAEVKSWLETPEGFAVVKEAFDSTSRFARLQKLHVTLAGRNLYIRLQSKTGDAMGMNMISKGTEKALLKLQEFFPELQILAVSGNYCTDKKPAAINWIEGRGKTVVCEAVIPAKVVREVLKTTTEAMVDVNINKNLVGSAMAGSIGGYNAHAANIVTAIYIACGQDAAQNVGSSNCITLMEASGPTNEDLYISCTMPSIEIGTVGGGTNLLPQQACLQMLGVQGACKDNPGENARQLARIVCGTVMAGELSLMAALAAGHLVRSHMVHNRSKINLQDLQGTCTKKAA
pIC50: −log10 of the molar value.

{"columns": ["COMPOUND", "pIC50"],
 "data": [
  ["C[C@H](CC(O)CC(O)CC(=O)O)[C@H]1CC[C@H]2[C@@H]3[C@H](O)C[C@@H]4C[C@H](O)CC[C@]4(C)[C@H]3C[C@H](OC(=O)C(C)(C)C)[C@]12C (some centres not stated)", 4.91],
  ["CC(=O)O[C@@H]1CC[C@@]2(C)[C@@H](C1)C[C@@H](OC(C)=O)[C@@H]1[C@@H]2C[C@H](OC(C)=O)[C@]2(C)[C@@H]([C@H](C)CC(O)CC(O)CC(=O)O)CC[C@@H]12 (some centres not stated)", 4.41]
]}
